Each entry below lists one item and its recorded selectivity ratio value.
Test: Selectivity index, ratio of IC50 for cytotoxicity against rat myoblast L6 cells to IC50 for antileishmanial activity against axenically grown amastigotes Leishmania donovani MHOM-ET-67/L82
Type: toxicity, cell-based
Settings: read-out: Selectivity Index

{"molecule": "CC(C)C1=C2OC(C)(C)[C@@H]3CC4[C@H](C)[C@@H](O)C[C@@]5(CC[C@H]6C(C)(C)CCC[C@]67C[C@]45[C@@]23O7)C1=O (some centres undefined)", "selectivity ratio": 3.3}
{"molecule": "CC(C)C1=C2OC(C)(C)[C@@H]3CC4[C@@H](C)[C@H](O)C[C@@]5(CC[C@H]6C(C)(C)CCC[C@]67C[C@]45[C@@]23O7)C1=O (some centres undefined)", "selectivity ratio": 3.7}
{"molecule": "CC(C)C1=C2OC(C)(C)[C@@H]3CC4[C@@H](C)[C@H](B(F)F)C[C@@]5(CC[C@H]6C(C)(C)CCC[C@]67C[C@]45[C@@]23O7)C1=O (some centres undefined)", "selectivity ratio": 7.3}
{"molecule": "CC1=CC[C@]23CC[C@H]4C(C)(C)CCC[C@]45C[C@]24C1=C[C@H]1C(C)(C)OC(=C(C(C)C)C3=O)[C@@]14O5", "selectivity ratio": 0.9}
